TESTED_ON: Glycogen synthase kinase-3 (Sus scrofa, UniProt B2LUN4+I6LNT8)
PROCEDURE_SUMMARY: Inhibition of porcine brain GSK3alpha/beta using GS-1 as substrate incubated for 30 mins in presence of [gamma-33 P] ATP by liquid scintillation counting analysis
MEASURED_METRIC: IC50

> print(dat)
                               line.notation  measured.metric  endpoint.result
 1  COc1ccc2[nH]cc(/C(C#N)=C(\N)c3cccnc3)c2c1             IC50          > 10 µM
 2           N#Cc1cc2ncccc2c2[nH]c3ccccc3c12             IC50          > 10 µM
 3    COc1ccc2c(/C(C#N)=C/c3cccnc3)c[nH]c2n1             IC50          > 10 µM
 4               Nc1nc2ccccc2c2cc3cnccc3cc12             IC50          > 10 µM
 5  COc1ccc2[nH]cc(-c3cc4cnccc4cc3NC(C)=O)c2c1             IC50          > 10 µM
 6    COc1cccc2c1[nH]c1c3ccncc3cc(C(N)=O)c21             IC50           8.8 µM
 7  COc1ccc2c(c1)[nH]c1c3ccncc3cc(CNC(C)=O)c21             IC50          > 10 µM
 8        N#C/C(=C\c1ccncc1)c1c[nH]c2ccccc12             IC50          > 10 µM
 9  COc1cncc(/C=C(\C#N)c2c[nH]c3ccc(OC)cc23)c1             IC50          > 10 µM
10     COc1ccc2c(n1)[nH]c1c3ccncc3cc(C#N)c21             IC50          > 10 µM

Input: Note down IC50 recorded for COc1ccc2[nH]c3c4ccncc4cc(C#N)c3c2c1
Output: 1.7 µM

Input: Note down IC50 recorded for N#Cc1cc2ccncc2c2[nH]c3ccccc3c12
Output: 2.4 µM

====

TESTED_ON: Dual specificity tyrosine-phosphorylation-regulated kinase 1B (Homo sapiens)
Sequence (Q9Y463 whole entry): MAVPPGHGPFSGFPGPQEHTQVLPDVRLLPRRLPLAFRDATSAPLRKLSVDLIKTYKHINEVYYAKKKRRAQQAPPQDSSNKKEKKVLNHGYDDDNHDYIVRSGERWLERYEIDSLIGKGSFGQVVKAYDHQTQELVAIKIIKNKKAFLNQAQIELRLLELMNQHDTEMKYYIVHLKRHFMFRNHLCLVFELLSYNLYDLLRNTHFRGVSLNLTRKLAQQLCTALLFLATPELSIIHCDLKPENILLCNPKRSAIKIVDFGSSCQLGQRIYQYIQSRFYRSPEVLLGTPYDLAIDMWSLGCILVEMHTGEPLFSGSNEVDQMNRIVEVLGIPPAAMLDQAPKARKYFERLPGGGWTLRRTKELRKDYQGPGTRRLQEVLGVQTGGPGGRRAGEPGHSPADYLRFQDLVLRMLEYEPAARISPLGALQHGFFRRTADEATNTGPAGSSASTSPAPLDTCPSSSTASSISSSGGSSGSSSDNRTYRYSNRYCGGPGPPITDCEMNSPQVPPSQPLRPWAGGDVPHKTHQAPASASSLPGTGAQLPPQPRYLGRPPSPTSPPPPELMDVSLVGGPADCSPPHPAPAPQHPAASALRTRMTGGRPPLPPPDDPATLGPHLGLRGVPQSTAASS
PROCEDURE_SUMMARY: Inhibition of GST-tagged human recombinant DYRK1B expressed in Escherichia coli using RS peptide as substrate incubated for 30 mins in presence of [gamma-33 P] ATP by liquid scintillation counting analysis
IC50 values for the molecules below.

The cases that follow already have their IC50 on record.
> print(dat)
                              line.notation                                 tested.on  measured.metric  endpoint.result
1        N#Cc1cc2cnccc2c2[nH]c3ccc(F)cc3c12  Dual specificity tyrosine-phosphorylation-regulated kinase 1B (Homo sapiens)             IC50           0.3 µM
2     COc1ccc2c(n1)[nH]c1c3ccncc3cc(C#N)c21  Dual specificity tyrosine-phosphorylation-regulated kinase 1B (Homo sapiens)             IC50         0.093 µM
3        N#C/C(=C\c1cccnc1)c1c[nH]c2ncccc12  Dual specificity tyrosine-phosphorylation-regulated kinase 1B (Homo sapiens)             IC50          0.24 µM
4           N#Cc1cc2cnccc2c2[nH]c3ncccc3c12  Dual specificity tyrosine-phosphorylation-regulated kinase 1B (Homo sapiens)             IC50          0.16 µM
5  COc1ccc2[nH]cc(-c3cc4cnccc4cc3NC(C)=O)c2c1  Dual specificity tyrosine-phosphorylation-regulated kinase 1B (Homo sapiens)             IC50          0.59 µM

Input: Report IC50 on Dual specificity tyrosine-phosphorylation-regulated kinase 1B (Homo sapiens) for this entry: COc1ccc2[nH]c3c(=O)[nH]c(-c4cccnc4)c(C#N)c3c2c1
Output: 1.1 µM

Input: Report IC50 on Dual specificity tyrosine-phosphorylation-regulated kinase 1B (Homo sapiens) for this entry: COc1ccc2c(c1)[nH]c1c3ccncc3cc(CN)c21
Output: 0.91 µM

Input: Report IC50 on Dual specificity tyrosine-phosphorylation-regulated kinase 1B (Homo sapiens) for this entry: COc1ccc2c(c1)[nH]c1c3ccncc3cc(C#N)c21
Output: 0.034 µM

Input: Report IC50 on Dual specificity tyrosine-phosphorylation-regulated kinase 1B (Homo sapiens) for this entry: COc1cccc2c1[nH]c1c3ccncc3cc(C#N)c21
Output: 0.028 µM

Input: Report IC50 on Dual specificity tyrosine-phosphorylation-regulated kinase 1B (Homo sapiens) for this entry: COc1ccc2c(-c3ccncc3)c[nH]c2n1
Output: 0.22 µM

Input: Report IC50 on Dual specificity tyrosine-phosphorylation-regulated kinase 1B (Homo sapiens) for this entry: COc1ccc2c(/C(C#N)=C/c3cccnc3)c[nH]c2n1
Output: 0.1 µM

Input: Report IC50 on Dual specificity tyrosine-phosphorylation-regulated kinase 1B (Homo sapiens) for this entry: COc1cccc2[nH]c3c4ccncc4cc(C#N)c3c12
Output: > 10 µM

Cited source for all entries: ChEMBL document CHEMBL3875174
